Test: Components of the Cytosolic LPS Sensing Pathway: Gene Identification via Genome-wide siRNA Screen
Details: RAW264.7 macrophages, IL-1a HTRF, actives lie on both sides, screened at 100 nM (by protocol), cells primed 5 h with Pam3CSK4 first
The whole screen tested about 53,000 sequences, of which about 3,700 (7%) were called active. Only a selection was taken, and actives are over-represented in it overall.
Define the label as Yes when z-score is strictly less than 0.2 and as No in all remaining cases.

I'd appreciate it if you could check whether CCUGAUGCACUACUCGUCUTT against Dmbx1 has z-score smaller than 0.2. Yes

I'd appreciate it if you could check whether GGCACUCAGGAACUUCCUGTT against Eci3 has z-score smaller than 0.2. Yes

I'd appreciate it if you could check whether GCACUACACCUCCAGUUCGTT against Gne has z-score smaller than 0.2. Yes

I'd appreciate it if you could check whether GGCUUGUACUACCAUGACATT against Rasgef1b has z-score smaller than 0.2. Yes

I'd appreciate it if you could check whether GGAUCAUGUCAUCACAAAATT against Fzd3 has z-score smaller than 0.2. Yes

I'd appreciate it if you could check whether CGUCCAGUAUACGCUGGUUTT against Cdc45 has z-score smaller than 0.2. No

I'd appreciate it if you could check whether UAGGAACGCACCCAUACAATT against Fam89b has z-score smaller than 0.2. No

I'd appreciate it if you could check whether GCAAGUACGCUGCUCUGUCTT against Eif4b has z-score smaller than 0.2. No

I'd appreciate it if you could check whether GCUAAGAAACUGGUCUCAUTT against Reg4 has z-score smaller than 0.2. Yes

I'd appreciate it if you could check whether CCCACCUUCCGACUUGAAUTT against Col12a1 has z-score smaller than 0.2. Yes

I'd appreciate it if you could check whether GGUGGUUGGAGUACUCAAGTT against Capza1 has z-score smaller than 0.2. Yes

I'd appreciate it if you could check whether CGUGAACGUAGAGUUUUCUTT against Fcrl5 has z-score smaller than 0.2. No

I'd appreciate it if you could check whether GGUUAUCCAGAGAGUGCAUTT against Arl4d has z-score smaller than 0.2. No

I'd appreciate it if you could check whether GGUGCAGAAUCUCUCAUUGTT against Mrpl30 has z-score smaller than 0.2. Yes

I'd appreciate it if you could check whether UAACUGGGCUCACGUUGACTT against Pou2f1 has z-score smaller than 0.2. No

I'd appreciate it if you could check whether CGACCUGACUUUUCUUAGGTT against Dynlrb2 has z-score smaller than 0.2. No

I'd appreciate it if you could check whether GCAAAGACAAUCUUUAAGGTT against Pde4d has z-score smaller than 0.2. Yes

I'd appreciate it if you could check whether GCUACCAGGAUAGCGAAACTT against P2rx2 has z-score smaller than 0.2. No

I'd appreciate it if you could check whether GGACUGAUAGAGGACUUCCTT against Bloc1s6 has z-score smaller than 0.2. Yes

I'd appreciate it if you could check whether GGAUCAACAUCAGAGUUCUTT against Zfp119b has z-score smaller than 0.2. Yes

I'd appreciate it if you could check whether CGGUCAUUAAUGAAGCCUGTT against Pamr1 has z-score smaller than 0.2. No

I'd appreciate it if you could check whether GGAUCUAAGGAAGUUUCUGTT against Gfpt2 has z-score smaller than 0.2. No

I'd appreciate it if you could check whether CCACCUUAACUGUUGCUUUTT against Mmp2 has z-score smaller than 0.2. No

I'd appreciate it if you could check whether GGUCAAGUAUCUGAGAAAATT against Selenoh has z-score smaller than 0.2. Yes

I'd appreciate it if you could check whether GCUUCAGGAGCUCUACUGUTT against Catsper3 has z-score smaller than 0.2. Yes
